// data source = paper PMC6173196

Target: mouse IL-2 (mIL-2, amino acids 1–149), hexahistidine-tagged (Mus musculus, UniProt P04351)
Sequence (P04351 21-169): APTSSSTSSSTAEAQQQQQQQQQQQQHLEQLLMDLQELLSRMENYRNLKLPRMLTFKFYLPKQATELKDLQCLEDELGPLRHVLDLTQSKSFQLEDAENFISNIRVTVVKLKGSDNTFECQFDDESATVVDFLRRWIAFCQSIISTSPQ
Test: SPR
pKd: −log10 of the molar value.
Please note: TRUE applies when pKd is 7 or greater, and FALSE applies otherwise.

Example cases with answers are listed next.
biotinylated JES6–1 antibody mutant D55A (VH) (antibody, V domains shown) VH: EIQLQQSGPELRRPGSSVKLSCKASGYNITDYLIHWVRHRPEHGLEWIGWIAPEDGETRYAQKFQSKATLTADTSSNAAYMQLSSLTPEDTATYFCARSLDSTYIYPFAYWGQGTLVTVSS VL: DIVMTQSPFSLAVSEGEMVTINCKSSQSLLSSGNQKNYLAWYQQKPGQSPKLLIYYASTGQSGVPDRFIGSGSGTDFTLTISDVQAEDLADYYCLQHYISPPTFGAGTKLELK	FALSE
biotinylated JES6–1 antibody mutant R62A (VH) (antibody, V domains shown) VH: EIQLQQSGPELRRPGSSVKLSCKASGYNITDYLIHWVRHRPEHGLEWIGWIDPEDGETAYAQKFQSKATLTADTSSNAAYMQLSSLTPEDTATYFCARSLDSTYIYPFAYWGQGTLVTVSS VL: DIVMTQSPFSLAVSEGEMVTINCKSSQSLLSSGNQKNYLAWYQQKPGQSPKLLIYYASTGQSGVPDRFIGSGSGTDFTLTISDVQAEDLADYYCLQHYISPPTFGAGTKLELK	TRUE
biotinylated JES6–1 antibody mutant Y41A (VL) (antibody, V domains shown) VH: EIQLQQSGPELRRPGSSVKLSCKASGYNITDYLIHWVRHRPEHGLEWIGWIDPEDGETRYAQKFQSKATLTADTSSNAAYMQLSSLTPEDTATYFCARSLDSTYIYPFAYWGQGTLVTVSS VL: DIVMTQSPFSLAVSEGEMVTINCKSSQSLLSSGNQKNALAWYQQKPGQSPKLLIYYASTGQSGVPDRFIGSGSGTDFTLTISDVQAEDLADYYCLQHYISPPTFGAGTKLELK	TRUE

Let's switch to this binder now.
Is it the case that biotinylated JES6–1 antibody mutant D58A (VH) (antibody, V domains shown) VH: EIQLQQSGPELRRPGSSVKLSCKASGYNITDYLIHWVRHRPEHGLEWIGWIDPEAGETRYAQKFQSKATLTADTSSNAAYMQLSSLTPEDTATYFCARSLDSTYIYPFAYWGQGTLVTVSS VL: DIVMTQSPFSLAVSEGEMVTINCKSSQSLLSSGNQKNYLAWYQQKPGQSPKLLIYYASTGQSGVPDRFIGSGSGTDFTLTISDVQAEDLADYYCLQHYISPPTFGAGTKLELK has pKd reaching or exceeding 7?
FALSE
